Parameter: IHC % Frequency. Scope: all listed entries.
# TEST TARGET: T1, Human MAGEB2 (Melanoma-associated antigen B2) (human, UniProt O15479 1-319)
# T1 construct: Intracellular antigen detected by IHC in FFPE material: CHO cells transfected with human MAGEB2 (mCherry vector with Myc/DDK tags, or ORF without tags)
# T1 sequence: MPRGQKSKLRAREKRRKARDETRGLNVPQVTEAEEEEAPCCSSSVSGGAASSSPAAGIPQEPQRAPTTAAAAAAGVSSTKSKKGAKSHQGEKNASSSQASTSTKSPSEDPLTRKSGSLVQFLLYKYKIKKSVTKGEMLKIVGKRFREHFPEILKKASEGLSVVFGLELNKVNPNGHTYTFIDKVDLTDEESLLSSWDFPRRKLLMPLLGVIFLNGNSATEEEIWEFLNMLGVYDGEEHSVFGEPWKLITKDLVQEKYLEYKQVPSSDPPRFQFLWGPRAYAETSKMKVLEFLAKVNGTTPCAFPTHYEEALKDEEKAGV
# EXPERIMENTAL DETAILS: IHC on FFPE UACC-257 cells (endogenous MAGEB2)
Kindly answer with a numeric value in %, unit omitted.

Check out these entries, answers already filled in.
1) 1C3 (antibody, V domains shown, also called MAGE-B2 (IC3); anti-MAGEB2 antibody 1C3) VH: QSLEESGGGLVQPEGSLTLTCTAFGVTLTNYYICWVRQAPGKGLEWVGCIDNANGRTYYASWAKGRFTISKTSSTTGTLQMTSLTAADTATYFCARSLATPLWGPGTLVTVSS VL: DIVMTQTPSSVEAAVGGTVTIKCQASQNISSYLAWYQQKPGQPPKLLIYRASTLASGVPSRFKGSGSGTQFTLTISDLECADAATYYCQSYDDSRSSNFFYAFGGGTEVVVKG | 0
2) 4G17 (antibody, IgG1, V domains shown, Rabbit monoclonal IgG1; Tested as supernatant and as small batch purified antibody; also called MAGE-B2 (4G17); anti-MAGEB2 antibody 4G17) VH: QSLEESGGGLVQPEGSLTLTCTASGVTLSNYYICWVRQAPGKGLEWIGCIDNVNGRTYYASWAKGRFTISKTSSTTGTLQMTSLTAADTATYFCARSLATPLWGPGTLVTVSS VL: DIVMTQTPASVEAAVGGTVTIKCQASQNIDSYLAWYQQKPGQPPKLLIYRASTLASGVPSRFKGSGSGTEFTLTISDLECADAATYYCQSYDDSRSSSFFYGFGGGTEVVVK | 0
3) 1J15 (antibody, IgG1, V domains shown, Rabbit monoclonal IgG1; Tested as supernatant and as small batch purified antibody; also called MAGE-B2 (IJ15); anti-MAGEB2 antibody 1J15) VH: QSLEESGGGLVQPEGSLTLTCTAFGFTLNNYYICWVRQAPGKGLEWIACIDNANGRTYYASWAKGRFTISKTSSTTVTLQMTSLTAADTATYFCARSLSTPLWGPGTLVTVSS VL: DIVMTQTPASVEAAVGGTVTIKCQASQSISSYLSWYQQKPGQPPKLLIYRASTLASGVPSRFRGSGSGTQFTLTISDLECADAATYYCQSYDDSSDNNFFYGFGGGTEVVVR | 0

# input Supply reported IHC % Frequency belonging to this binder: 1I14 (antibody, V domains shown, also called MAGE-B2 (1i14)) VH: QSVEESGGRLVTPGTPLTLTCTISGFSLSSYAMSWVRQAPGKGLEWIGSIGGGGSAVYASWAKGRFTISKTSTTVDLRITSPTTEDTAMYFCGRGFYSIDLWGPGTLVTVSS VL: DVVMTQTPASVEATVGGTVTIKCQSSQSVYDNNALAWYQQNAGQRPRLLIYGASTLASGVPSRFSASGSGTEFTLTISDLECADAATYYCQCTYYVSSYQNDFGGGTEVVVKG
# output 0

These measurements were taken from patent US20250282887A1.
